Examples of molecules with documented Specificity follow.
Tested on: LPESG (Abz-LPESGK(Dnp)-CONH2)
Experiment: In vitro sortase kinetics HPLC assay, LPESG substrate
Format: biochemical
Details: ratio of kcat/KM, 4S (LPESG) over wt (LPETG)
I'd appreciate a reply containing only the number, no unit.

eSrtA(4S-6): round 6 consensus variant targeting LPESG (protein) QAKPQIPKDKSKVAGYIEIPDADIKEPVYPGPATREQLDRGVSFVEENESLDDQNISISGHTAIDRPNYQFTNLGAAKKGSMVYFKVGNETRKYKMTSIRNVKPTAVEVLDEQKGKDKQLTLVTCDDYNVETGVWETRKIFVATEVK; 8.094
eSrtA(4S-4): 5mut + A104V A118T F122S I182V (protein) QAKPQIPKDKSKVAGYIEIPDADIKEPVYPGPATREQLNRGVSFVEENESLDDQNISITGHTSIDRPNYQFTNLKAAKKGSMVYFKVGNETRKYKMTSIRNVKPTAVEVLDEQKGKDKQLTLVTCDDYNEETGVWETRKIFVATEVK; 2.224

Now let's try a different one.
Consider the molecule shown here: eSrtA(4S-5): 5mut + N98D A104V A118T F122A K134R I182V (protein) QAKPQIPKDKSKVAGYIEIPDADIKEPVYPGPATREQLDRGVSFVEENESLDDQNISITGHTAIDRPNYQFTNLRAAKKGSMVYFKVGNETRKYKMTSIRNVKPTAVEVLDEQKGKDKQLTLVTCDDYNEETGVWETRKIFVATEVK What is its recorded Specificity?
9.672
